- runDescription: Plasma pharmacokinetics (noncompartmental analysis) after single oral administration of Arbequina table olives
- Format: in vivo, Sprague-Dawley rats
- details: Sprague-Dawley, rat, plasma, oral; both doses; read-out: Vss/F or Vdarea/F
recordedMetric: Vd/F

Query: Quote Vd/F reported for OCCc1ccc(O)c(O)c1 [hydroxytyrosol] please.
Result: ~1000 L/kg

###

- runDescription: Plasma pharmacokinetics (noncompartmental analysis) after single oral administration of Arbequina table olives
- Assay type: in vivo, Sprague-Dawley rats
- details: Sprague-Dawley, rat, plasma, po, 2.95 mg/kg, 30 olives group (hydroxytyrosol 2.95 mg/kg oral); geometric mean (95% CI); read-out: Vdarea/F (apparent volume of distribution, terminal phase)
- Method: The experiments were performed using Sprague–Dawley rats (n = 13) randomly divided into two groups, the 30 olives group (n = 6) that received the dose of 3.85 g/kg and the 60 olives group (n = 7), which was given the dose of 7.70 g/kg. […] Hydroxytyrosol and its metabolites in plasma were determined by liquid–liquid extraction followed by LC-MS/MS analysis as previously described.[11] […]
recordedMetric: Vd/F (L/kg)
# number only, unit L/kg dropped from output

Query: Tell us which Vd/F value is on record for OCCc1ccc(O)c(O)c1 [hydroxytyrosol]
Result: 1070
